system: 556581-035-R-J1-PDC complex spheroid growth; test: Anticancer human tumor 556581-035-R-J1-PDC patient-derived ovarian carcinoma cell line growth inhibition [Asc]; conditions: second compound 0.01 µM; first compound 10 µM; hits give low values
Readings of viability, T/C for the listed compounds
QUANTITY: viability, T/C

COMPOUND | RESULT
C#Cc1c(F)ccc2cc(O)cc(-c3ncc4c(N5CC6CCC(C5)N6)nc(OCC56CCCN5CC(F)C6)nc4c3F)c12 (centres undefined) + CNC(C)C(=O)NC1CN(S(=O)(=O)c2cccc(S(=O)(=O)N3CCC4CCC(C(=O)NC(c5ccccc5)c5ccccc5)N4C(=O)C(NC(=O)C(C)NC)C3)c2)CCC2CCC(C(=O)NC(c3ccccc3)c3ccccc3)N2C1=O | 71%
O=C(c1cc(Cc2n[nH]c(=O)c3ccccc23)ccc1F)N1CCN(C(=O)C2CC2)CC1 + CNC(C)C(=O)NC1CN(S(=O)(=O)c2cccc(S(=O)(=O)N3CCC4CCC(C(=O)NC(c5ccccc5)c5ccccc5)N4C(=O)C(NC(=O)C(C)NC)C3)c2)CCC2CCC(C(=O)NC(c3ccccc3)c3ccccc3)N2C1=O | 56.8%
C=C(F)C(=O)N1CCN(c2nc(OCC3CCCN3C)nc3c2CCN(c2cccc4cccc(Cl)c24)C3)CC1CC#N (centres undefined) + CNC(C)C(=O)NC1CN(S(=O)(=O)c2cccc(S(=O)(=O)N3CCC4CCC(C(=O)NC(c5ccccc5)c5ccccc5)N4C(=O)C(NC(=O)C(C)NC)C3)c2)CCC2CCC(C(=O)NC(c3ccccc3)c3ccccc3)N2C1=O | 0.21%
C=CC(=O)N1CCN(c2nc(=O)n(-c3c(C)ccnc3C(C)C)c3nc(-c4c(O)cccc4F)c(F)cc23)C(C)C1 (centres undefined) + CNC(C)C(=O)NC1CN(S(=O)(=O)c2cccc(S(=O)(=O)N3CCC4CCC(C(=O)NC(c5ccccc5)c5ccccc5)N4C(=O)C(NC(=O)C(C)NC)C3)c2)CCC2CCC(C(=O)NC(c3ccccc3)c3ccccc3)N2C1=O | 86.5%

----------
test system: 556581-035-R-J1-PDC complex spheroid growth; assay: Anticancer human tumor 556581-035-R-J1-PDC cell line growth inhibition [Asc]; conditions: second compound 1 µM; first compound 0.01 µM; hits give low values;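 further: spheroids exposed to agents for 7 days before viability read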
Quick list: viability, T/C per entry.

MOLECULE | viability, T/C (%)
CCN1CCN(Cc2ccc(Nc3ncc(F)c(-c4cc(F)c5nc(C)n(C(C)C)c5c4)n3)nc2)CC1 + Cc1c(S(C)(=O)=O)c(-c2cc(F)cc(N3CCN(c4ccc(NS(=O)(=O)c5ccc(NC(CCN6CCC(C(=O)OCCCP(=O)(O)O)CC6)CSc6ccccc6)c(S(=O)(=O)C(F)(F)F)c5)cc4)CC3)c2)c(-c2ccc(Cl)cc2)n1C(C)C | 89.6
Cn1ncnc1[C@H]1c2n[nH]c(=O)c3cc(F)cc(c23)N[C@@H]1c1ccc(F)cc1 + Cc1c(S(C)(=O)=O)c(-c2cc(F)cc(N3CCN(c4ccc(NS(=O)(=O)c5ccc(NC(CCN6CCC(C(=O)OCCCP(=O)(O)O)CC6)CSc6ccccc6)c(S(=O)(=O)C(F)(F)F)c5)cc4)CC3)c2)c(-c2ccc(Cl)cc2)n1C(C)C | 79.8
O=C(c1ccc(F)c(F)c1Nc1ccc(I)cc1F)N1CC(O)([C@@H]2CCCCN2)C1 + CNC(C)C(=O)NC1CN(S(=O)(=O)c2cccc(S(=O)(=O)N3CCC4CCC(C(=O)NC(c5ccccc5)c5ccccc5)N4C(=O)C(NC(=O)C(C)NC)C3)c2)CCC2CCC(C(=O)NC(c3ccccc3)c3ccccc3)N2C1=O | 81.4
NC1CCC(NC2CC2c2ccccc2)CC1 (centres undefined) + Cc1c(S(C)(=O)=O)c(-c2cc(F)cc(N3CCN(c4ccc(NS(=O)(=O)c5ccc(NC(CCN6CCC(C(=O)OCCCP(=O)(O)O)CC6)CSc6ccccc6)c(S(=O)(=O)C(F)(F)F)c5)cc4)CC3)c2)c(-c2ccc(Cl)cc2)n1C(C)C | 64.8
